- system.under.test: dopamine D2 receptors (Homo sapiens (Human), UniProt P14416)
- Sequence (P14416 whole entry): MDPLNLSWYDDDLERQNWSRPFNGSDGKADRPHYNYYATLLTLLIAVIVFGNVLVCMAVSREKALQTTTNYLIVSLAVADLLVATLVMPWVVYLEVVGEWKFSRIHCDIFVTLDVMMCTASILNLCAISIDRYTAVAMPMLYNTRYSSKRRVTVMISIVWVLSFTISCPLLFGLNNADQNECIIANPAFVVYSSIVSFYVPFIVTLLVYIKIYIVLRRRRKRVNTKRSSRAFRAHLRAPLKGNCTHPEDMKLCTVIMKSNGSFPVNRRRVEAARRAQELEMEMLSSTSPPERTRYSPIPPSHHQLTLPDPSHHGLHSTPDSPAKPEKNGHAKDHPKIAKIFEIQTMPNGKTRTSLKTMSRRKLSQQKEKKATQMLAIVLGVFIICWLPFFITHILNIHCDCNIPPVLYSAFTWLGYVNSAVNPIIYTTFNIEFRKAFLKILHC
- test: G protein Gαi1-γ9 dissociation BRET, dopamine D2 receptor functional activity
- Assay type: cell-based
- assay.context: HEK-293T; I-1 to 19 n=3, I-20 to 27 single determination; read-out: Gai1 BRET EC50
- Method: To examine downstream G protein signaling mediated by dopamine D2 receptors, 6 cm dish was used for transfection with 1μg of dopamine D2 receptors, 1μg of Gαi1 fused to seaweed luciferase (Gαi1-Rluc), 1 μg of Gβ3, 1 μg of Gγ9 fused to green fluorescent protein (Gγ9-GFP) and 16 μL of transfection reagent PEI. […] On the third day, the drugs were added for test. […]
# pEC50 listing for each entry below
Reminder that pEC50 means the negative base-10 logarithm of the concentration expressed in mol/L.

In the examples that follow, each entry is paired with its recorded pEC50.
>  <compound>
O=c1ccc2ccc(OC/C=C/CN3CCN4c5cccc6[nH]cc(c56)CC4C3)cc2[nH]1 (stereo not shown) [Compound I-21]

>  <pEC50>
8.11

$$$$
>  <compound>
Cn1cc2c3c(cccc31)N1CCN(CCCCOc3ccc4ccc(=O)[nH]c4c3)CC1C2 (stereo not shown) [Compound I-18]

>  <pEC50>
7.96

$$$$
>  <compound>
Cc1nc2n(c(=O)c1CCN1CCN3c4cccc5[nH]cc(c45)CC3C1)CCCC2 (stereo not shown) [Compound I-17]

>  <pEC50>
7.49

$$$$

Provide one value: measured pEC50 of Cc1nc2cc(OCCCCN3CCN4c5cccc6[nH]cc(c56)CC4C3)ccc2o1 (stereo not shown) [Compound I-4]
8.18

---

- test: Brain permeability in C57 male mice (plasma and brain tissue concentration)
- Type: in vivo
- assay.context: mouse, brain/plasma, ip, intraperitoneal injection 1 mg/kg, read-out: Brain/blood concentration ratio at 0.5 h
recorded.metric: Kp at 0.5 h
Respond with the number and no other words.

Complete the entry with Kp at 0.5 h for CN(C)C(=O)N[C@H]1CC[C@H](CCN2CCN3c4cccc5[nH]cc(c45)C[C@H]3C2)CC1 [(−)-I-10]
1.56

---

- test: Brain permeability in C57 male mice (plasma and brain tissue concentration)
- Assay type: in vivo
- assay.context: mouse, brain/plasma, intravenous injection 1 mg/kg, read-out: Brain/blood concentration ratio at 0.5 h
recorded.metric: Kp at 0.5 h
Please respond with just the number, no unit label.

Indicate its recorded Kp at 0.5 h; the molecule in question is CN(C)C(=O)N[C@H]1CC[C@H](CCN2CCN3c4cccc5[nH]cc(c45)C[C@H]3C2)CC1 [(−)-I-10]
1.65

---

- test: Pharmacokinetic properties in C57 male mice, single dose (plasma, LC-MS/MS)
- Assay type: in vivo
- assay.context: mouse, plasma, ip, intraperitoneal injection 1 mg/kg, read-out: Time to peak tmax
recorded.metric: Tmax

Give recorded Tmax. CN(C)C(=O)N[C@H]1CC[C@H](CCN2CCN3c4cccc5[nH]cc(c45)C[C@H]3C2)CC1 [(−)-I-10]
5 min

---

- test: Brain permeability in C57 male mice (plasma and brain tissue concentration)
- Assay type: in vivo
- assay.context: mouse, brain, intravenous injection 1 mg/kg, read-out: Drug concentration at 0.5 h in brain
recorded.metric: concentration at 0.5 h (ng/mL)
Give just the numeric value; ng/mL need not be written.

Kindly indicate its recorded concentration at 0.5 h. Item: CN(C)C(=O)N[C@H]1CC[C@H](CCN2CCN3c4cccc5[nH]cc(c45)C[C@H]3C2)CC1 [(−)-I-10]
219

---

5-HT2A receptor (Homo sapiens (Human), UniProt P28223): reported Ki for various compounds.
Sequence (P28223 whole entry): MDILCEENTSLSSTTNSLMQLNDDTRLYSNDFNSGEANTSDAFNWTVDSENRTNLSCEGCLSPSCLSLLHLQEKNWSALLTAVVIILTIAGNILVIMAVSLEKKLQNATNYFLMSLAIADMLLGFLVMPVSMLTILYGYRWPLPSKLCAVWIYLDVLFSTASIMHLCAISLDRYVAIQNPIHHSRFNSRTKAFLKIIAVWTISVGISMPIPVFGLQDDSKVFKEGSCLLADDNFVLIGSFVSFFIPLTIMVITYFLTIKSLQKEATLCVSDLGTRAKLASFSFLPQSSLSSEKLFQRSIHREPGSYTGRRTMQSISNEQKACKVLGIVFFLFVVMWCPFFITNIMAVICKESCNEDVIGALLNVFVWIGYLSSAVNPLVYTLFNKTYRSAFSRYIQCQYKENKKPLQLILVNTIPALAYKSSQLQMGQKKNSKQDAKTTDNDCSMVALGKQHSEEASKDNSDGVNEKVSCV
Give a bare numeral; the unit nM is implied.

>  <compound>
CN(C)C(=O)N[C@H]1CC[C@H](CCN2CCN3c4cccc5[nH]cc(c45)C[C@@H]3C2)CC1 [(+)-I-10]

>  <unit.label>
nM

>  <result.value>
2480

$$$$

Report Ki under test system 5-HT2A receptor (Homo sapiens (Human), UniProt P28223) for O=C1CCc2ccc(OCCCCN3CCN4c5cccc6[nH]cc(c56)CC4C3)cc2N1 (centres unmarked) [Compound I-1] .
3640

Please tell me the measured Ki for CN(C)C(=O)N[C@H]1CC[C@H](CCN2CCN3c4cccc5[nH]cc(c45)C[C@H]3C2)CC1 [(−)-I-10] ; system: 5-HT2A receptor (Homo sapiens (Human), UniProt P28223).
2630

Under 5-HT2A receptor (Homo sapiens (Human), UniProt P28223), report Ki for CN(C)C(=O)N[C@H]1CC[C@H](CCN2CCN3c4cccc5[nH]cc(c45)CC3C2)CC1 (some centres unmarked) [Compound I-10]
2370

Provide the reported Ki (system: 5-HT2A receptor (Homo sapiens (Human), UniProt P28223)) for O=c1ccc2ccc(OCCCCN3CCN4c5cccc6[nH]cc(c56)CC4C3)cc2[nH]1 (racemic) [Compound I-2]
907

---

- test: Brain permeability in C57 male mice (plasma and brain tissue concentration)
- Type: in vivo
- assay.context: mouse, brain/plasma, intravenous injection 1 mg/kg, read-out: Brain/blood concentration ratio at 2.0 h
- Procedure: • 2. Test of the brain permeability of compound (−)-I-10 administered to C57 male mice by single intragastric administration, intraperitoneal injection and intravenous injection Using the same method as the pharmacokinetic experiment, 0.030 mL of blood was taken from each animal through the orbit at 0.5 and 2.0 hours, respectively, and anticoagulated with EDTA-K2. […] The drug concentrations in plasma and brain tissue were analyzed by LC/MS/MS and compared.
recorded.metric: Kp at 2 h

Report Kp at 2 h, nothing else, for this compound: CN(C)C(=O)N[C@H]1CC[C@H](CCN2CCN3c4cccc5[nH]cc(c45)C[C@H]3C2)CC1 [(−)-I-10]
3.09

---

- test: Pharmacokinetic properties in C57 male mice, single dose (plasma, LC-MS/MS)
- Format: in vivo
- assay.context: mouse, plasma, ip, intraperitoneal injection 1 mg/kg, read-out: Terminal elimination half-life t1/2 (converted)
recorded.metric: half-life (min)
Return type: number; implicit unit min.

Report measured half-life; entry is CN(C)C(=O)N[C@H]1CC[C@H](CCN2CCN3c4cccc5[nH]cc(c45)C[C@H]3C2)CC1 [(−)-I-10]
46.9

---

- system.under.test: dopamine D2 receptors (Homo sapiens (Human), UniProt P14416)
- test: G protein Gαi1-γ9 dissociation BRET, dopamine D2 receptor functional activity
- Format: cell-based
- assay.context: HEK-293T; I-1 to 19 n=3, I-20 to 27 single determination; read-out: Gai1 BRET EC50
recorded.metric: EC50 (nM)
# unit: nM | format: bare number

Tell me measured EC50 for c1cc2c3c(c[nH]c3c1)CC1CN(CCCOc3ccc4c(c3)OCO4)CCN21 (stereo not shown) [Compound I-9] please.
166

Output measured EC50 for this item: O=C(N[C@H]1CC[C@H](CCN2CCN3c4cccc5[nH]cc(c45)CC3C2)CC1)N1CCCC1 (stereo partly shown) [Compound I-11]
9.33

---

- test: Pharmacokinetic properties in C57 male mice, single dose (plasma, LC-MS/MS)
- Format: in vivo
- assay.context: mouse, plasma, ip, intraperitoneal injection 1 mg/kg, read-out: Bioavailability F
recorded.metric: bioavailability (%)
Answer with a number only, understood to be in %.

Provide measured bioavailability value, entry: CN(C)C(=O)N[C@H]1CC[C@H](CCN2CCN3c4cccc5[nH]cc(c45)C[C@H]3C2)CC1 [(−)-I-10]
81.4

---

- system.under.test: dopamine D2 receptors (Homo sapiens (Human), UniProt P14416)
- test: G protein Gαi1-γ9 dissociation BRET, dopamine D2 receptor functional activity
- Type: cell-based
- assay.context: HEK-293T; I-1 to 19 n=3, I-20 to 27 single determination; read-out: Gai1 BRET EC50
- Procedure: To examine downstream G protein signaling mediated by dopamine D2 receptors, 6 cm dish was used for transfection with 1μg of dopamine D2 receptors, 1μg of Gαi1 fused to seaweed luciferase (Gαi1-Rluc), 1 μg of Gβ3, 1 μg of Gγ9 fused to green fluorescent protein (Gγ9-GFP) and 16 μL of transfection reagent PEI. […] On the third day, the drugs were added for test. […]
Hi! Just check whether EC50 is below 7 nM. Below gives fulfilled, equal or above gives not fulfilled.

Before answering, review these 5 worked examples.
>  <compound>
c1cc2c3c(c[nH]c3c1)CC1CN(CCCCOc3ccc4scnc4c3)CCN21 (stereo not shown) [Compound I-3]

>  <label>
not fulfilled

$$$$
>  <compound>
O=C(N[C@H]1CC[C@H](CCN2CCN3c4cccc5[nH]cc(c45)CC3C2)CC1)c1ccccc1 (stereo partly shown) [Compound I-14]

>  <label>
fulfilled

$$$$
>  <compound>
O=C1CCc2ccc(OC/C=C/CN3CCN4c5cccc6[nH]cc(c56)CC4C3)cc2N1 (stereo not shown) [Compound I-20]

>  <label>
not fulfilled

$$$$
>  <compound>
O=c1ccc2ccc(OCCCCN3CCN4c5cccc6[nH]cc(c56)CC4C3)cc2[nH]1 (single isomer, unassigned; (+)) [(+)-I-2]

>  <label>
fulfilled

$$$$
>  <compound>
O=C1CCc2ccc(OCCCCN3CCN4c5cccc6[nH]cc(c56)CC4C3)cc2N1 (stereo not shown) [Compound I-1]

>  <label>
not fulfilled

$$$$

Does the reported EC50 of O=C(N[C@H]1CC[C@H](CCN2CCN3c4cccc5[nH]cc(c45)CC3C2)CC1)c1cc2ccccc2[nH]1 (stereo partly shown) [Compound I-13] stay below 7 nM?
fulfilled

Hello, is EC50 of the following compound strictly smaller than 7 nM? CN(C)C(=O)N[C@H]1CC[C@H](CCN2CCN3c4cccc5[nH]cc(c45)CC3C2)CC1 (stereo partly shown) [Compound I-10]
fulfilled
